# System: K. pneumoniae strain 249
# assay_explanation: Overnight microdilution susceptibility test (MicroScan panels, NCCLS criteria)
# Type: cell-based
# study_conditions: Klebsiella pneumoniae, K. pneumoniae 249, combinations as drug/clavulanate, read-out: Minimum Inhibitory Concentrations (MICs)
observation_type: MIC

Lookup: Suppose we examine the compound CO/N=C(\C(=O)N[C@@H]1C(=O)N2C(C(=O)[O-])=C(C[N+]3(C)CCCC3)CS[C@H]12)c1csc(N)n1 [cefepime] ; what MIC value has been reported?
Found: ≤ 4 µg/mL

Lookup: Suppose we examine the compound CCN1CCN(C(=O)N[C@@H](C(=O)N[C@@H]2C(=O)N3[C@@H]2SC(C)(C)[C@@H]3C(=O)O)c2ccccc2)C(=O)C1=O [piperacillin] ; what MIC value has been reported?
Found: > 64 µg/mL

Lookup: Suppose we examine the compound C[C@@H](O)[C@H]1C(=O)N2C(C(=O)O)=C(S[C@@H]3CN[C@H](C(=O)N(C)C)C3)[C@H](C)[C@H]12 [Meropenem] ; what MIC value has been reported?
Found: ≤ 0.5 µg/mL

Next:
Lookup: Suppose we examine the compound CC1(C)S[C@@H]2[C@H](NC(=O)[C@H](C(=O)O)c3ccsc3)C(=O)N2[C@H]1C(=O)O [ticarcillin] ; what MIC value has been reported?
Found: > 64 µg/mL

Lookup: Suppose we examine the compound CC(=O)OCC1=C(C(=O)O)N2C(=O)[C@@H](NC(=O)Cc3cccs3)[C@H]2SC1 [Cephalothin] ; what MIC value has been reported?
Found: > 16 µg/mL

Lookup: Suppose we examine the compound CC1(C)S[C@@H]2[C@H](NC(=O)[C@H](N)c3ccccc3)C(=O)N2[C@H]1C(=O)O [Ampicillin] ; what MIC value has been reported?
Found: > 16 µg/mL

Lookup: Suppose we examine the compound CC(C)(O/N=C(\C(=O)N[C@@H]1C(=O)N2C(C(=O)[O-])=C(C[n+]3ccccc3)CS[C@H]12)c1csc(N)n1)C(=O)O [Ceftazidime] ; what MIC value has been reported?
Found: 16 µg/mL
